Tested on: Fibroblast
Test: Multiplex assay against human fibroblast
Type: toxicity, cell-based
Conditions: 12 h, 1 µM, compound concentration 1 uM, replicate 2
Provide the recorded Population Normal (%) for the entries that follow.
Give bare numbers, in %.

Example results:
# compound, target.system, property.label, unit.info, recorded.measurement
rows = [
    ("COc1cc(C(=O)N(CCCc2ccccc2)Cc2ccc(CC(=O)O)cc2)cc(OC)c1C", "Fibroblast", "Population Normal (%)", "%", 95),
    ("C[C@@H]1C[C@H]2[C@@H]3CCC4=CC(=O)C=C[C@]4(C)[C@@]3(F)[C@@H](O)C[C@]2(C)[C@@]1(O)C(=O)CO", "Fibroblast", "Population Normal (%)", "%", 96),
    ("CSc1ccccc1N1CCN(CCCCCC(=O)NC2CCCc3ccccc32)CC1.Cl (centres undefined)", "Fibroblast", "Population Normal (%)", "%", 97),
]

As a next step, examine the compound that follows.
Case Cl.Clc1ccc2nsnc2c1NC1=NCCN1 [TIZANIDINE HYDROCHLORIDE] , Fibroblast, Population Normal (%) recorded as 95
